test system: T1, Human CD3eg linker (human)
T1 construct: Single-chain construct; also called recombinant human CD3
T1 chain: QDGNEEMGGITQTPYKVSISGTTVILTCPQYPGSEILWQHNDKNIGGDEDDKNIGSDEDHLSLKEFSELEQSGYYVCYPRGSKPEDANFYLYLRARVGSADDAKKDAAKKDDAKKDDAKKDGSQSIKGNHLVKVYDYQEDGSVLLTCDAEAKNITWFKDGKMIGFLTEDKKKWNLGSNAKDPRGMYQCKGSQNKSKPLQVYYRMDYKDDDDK
test summary: SPR; fold vs parent H183/L072
recorded metric: fold change of affinity (fold)
Respond with the bare value in fold.

Note to self: fold change of affinity recorded for H183/L072 VL G91S (antibody, name in Kabat numbering, V domains shown) VH: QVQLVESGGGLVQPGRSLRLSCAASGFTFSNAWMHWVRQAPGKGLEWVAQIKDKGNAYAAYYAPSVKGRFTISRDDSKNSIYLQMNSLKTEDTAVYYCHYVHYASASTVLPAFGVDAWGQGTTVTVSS VL: DIVMTQSPLSLPVTPGEPASISCQASQELVHMNRNTYLHWYQQKPGQAPRLLIYKVSNRFPGVPDRFSGSGSGTDFTLKISRVEAEDVGVYYCAQSTSVPFTFGQGTKLEIK was 0

Note to self: fold change of affinity recorded for H183/L072 VL T92M (antibody, name in Kabat numbering, V domains shown) VH: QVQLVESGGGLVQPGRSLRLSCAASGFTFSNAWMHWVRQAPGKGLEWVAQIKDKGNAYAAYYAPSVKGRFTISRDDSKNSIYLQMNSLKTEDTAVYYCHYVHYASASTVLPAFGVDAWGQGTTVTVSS VL: DIVMTQSPLSLPVTPGEPASISCQASQELVHMNRNTYLHWYQQKPGQAPRLLIYKVSNRFPGVPDRFSGSGSGTDFTLKISRVEAEDVGVYYCAQGMSVPFTFGQGTKLEIK was 0.3

Note to self: fold change of affinity recorded for H183/L072 VL V27cE (antibody, name in Kabat numbering, V domains shown) VH: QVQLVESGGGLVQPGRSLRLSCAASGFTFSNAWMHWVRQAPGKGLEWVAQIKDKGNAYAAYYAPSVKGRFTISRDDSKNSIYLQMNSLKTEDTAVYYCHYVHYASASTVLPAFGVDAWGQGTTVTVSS VL: DIVMTQSPLSLPVTPGEPASISCQASQELEHMNRNTYLHWYQQKPGQAPRLLIYKVSNRFPGVPDRFSGSGSGTDFTLKISRVEAEDVGVYYCAQGTSVPFTFGQGTKLEIK was 0.7

FYI, the data here is from patent US20210388087A1.
